# Test system: CCRF-CEM
# assay comment: NCI tumour cell line growth inhibition, 48 h
The source made the active and inactive calls. Rule as the data show it: active = GI50 up to about 1.1 µM and inactive = higher.
Possible outcomes: active, inactive

{"columns": ["compound", "qualitative label"],
 "data": [
  ["C[C@@H](CC(=O)O)OC1OC(COC(=O)C(C)(C)C)C(OC(=O)C(C)(C)C)C(OC(=O)C(C)(C)C)C1OC(=O)C(C)(C)C (stereo partly drawn)", "inactive"],
  ["N#CCCN(CCC#N)c1ccc(C(Sc2ccccc2)C(NC(=O)c2cc([N+](=O)[O-])ccc2Cl)C(=O)Sc2ccccc2)cc1 (stereo not drawn)", "active"],
  ["COC(=O)[C@]1(C)CCC[C@@]2(C)C1CC[C@@]13C=C(C(C)C)[C@@H](CC1=O)CC23 (stereo partly drawn)", "inactive"]
]}

---

The reader will find reported GI50 values listed item by item below.
# Test system: OVCAR-4
# assay comment: NCI tumour cell line growth inhibition, 48 h
Calls of active or inactive are those of the source. Rule as the data show it: active = GI50 up to about 1.1 µM and inactive = higher.

{"columns": ["compound", "GI50"],
 "data": [
  ["O=C(Oc1ccc(Cl)cc1[N+](=O)[O-])c1ccccc1", "43.4 µM (inactive)"],
  ["Cn1cnc([N+](=O)[O-])c1Sc1nncc2[nH]cnc12", "> 100 µM (inactive)"],
  ["CNC(=O)OCc1c(CO)nc(SC)n1C", "> 100 µM (inactive)"],
  ["CC[n+]1[b-](C(C)(C)C)n(/N=C/C(C)(C)C)[b-](C(C)(C)C)[n+]1CC", "> 100 µM (inactive)"],
  ["O=C1/C(=C/c2cccc3ccccc23)Cc2ccccc21", "22.3 µM (inactive)"],
  ["Cc1cc2nc(O)c(C(C)C(=O)c3ccc(Cl)cc3)nc2cc1C (stereo unspecified)", "31.6 µM (inactive)"]
]}

---

# Tested on: IGROV-1
# assay comment: NCI tumour cell line growth inhibition, 48 h
Calls of active or inactive are those of the source. Rule as the data show it: active = GI50 up to about 1.1 µM and inactive = higher.
Recorded GI50 for the following molecules
quantity kind: GI50

{"columns": ["molecule", "quantity kind", "measurement"],
 "data": [
  ["C=CCNC(=S)N/N=C1\\C(=O)N(CN2CCOCC2)c2ccc([N+](=O)[O-])cc21", "GI50", "6.21 µM (inactive)"],
  ["CN(NC(=O)/C(=C/C=C/c1ccccc1)NC(=O)c1ccccc1)C1=C(Cl)C(=O)[N+](c2ccccc2)=CC1", "GI50", "12.1 µM (inactive)"],
  ["CCC1=NC(N/N=C/c2ccccc2O)=N/C1=C\\c1ccccc1O", "GI50", "11.5 µM (inactive)"],
  ["CCOC(=O)c1cc(=O)n(C)c(=O)n1C", "GI50", "> 100 µM (inactive)"],
  ["CC(C)Cc1ccc(C(C)/C=C2\\CCC(CN3CCCC3)C2=O)cc1 (stereo unspecified)", "GI50", "5.74 µM (inactive)"],
  ["CO/N=C1\\CC(NC(=O)C(F)(F)F)c2ccsc21 (stereo unspecified)", "GI50", "> 100 µM (inactive)"],
  ["CC1=NN(c2nc(N)nc(CC#N)n2)C(C)(C)C1", "GI50", "> 100 µM (inactive)"],
  ["CC1(C)C(CC(=O)O)CCCC1CC(=O)O (stereo unspecified)", "GI50", "> 100 µM (inactive)"],
  ["CCC1C(c2cc(OC)c(OC)c(OC)c2)c2cc3c(cc2OC1N1CCCC1)OCO3 (stereo unspecified)", "GI50", "2.62 µM (inactive)"],
  ["Cc1cc(C)nc(NS(=O)(=O)c2ccc(NC(=O)c3ccc(Cl)c4c(Nc5ccc(S(=O)(=O)N=C(N)N)cc5)c5ccccc5nc34)cc2)n1", "GI50", "63.8 µM (inactive)"],
  ["O=C1OC(OC/C(Br)=C(\\Br)COC2OC(=O)C(Cl)=C2Cl)C(Cl)=C1Cl (stereo unspecified)", "GI50", "12.3 µM (inactive)"],
  ["CC(C)(C)OC(=O)NC(Cc1ccc(O)cn1)C(=O)O (stereo unspecified)", "GI50", "> 100 µM (inactive)"],
  ["CCOC(=O)Cn1c(=O)ccn(COCCO)c1=O", "GI50", "> 100 µM (inactive)"],
  ["O=C1/C(=C/c2cccc3ccccc23)Cc2ccccc21", "GI50", "41.4 µM (inactive)"],
  ["CC(=O)Oc1ccc(-c2c(OC(C)=O)c(OC(C)=O)c(-c3ccc(OC(C)=O)c(OC(C)=O)c3)c(OC(C)=O)c2OC(C)=O)cc1", "GI50", "15.5 µM (inactive)"],
  ["CN(C)/C=C/c1c2c(nc3ccccc13)C(=O)c1cccnc1C2=O", "GI50", "1.42 µM (inactive)"],
  ["COc1ccc(/C=N/n2cnc3c(sc(=S)n3-c3ccccc3)c2=O)cc1", "GI50", "37 µM (inactive)"],
  ["COc1cc2nc(-c3cccs3)nc(N3CCN(c4ccccc4)CC3)c2cc1OC", "GI50", "> 100 µM (inactive)"],
  ["C[C@@H](CC(=O)O)OC1OC(COC(=O)C(C)(C)C)C(OC(=O)C(C)(C)C)C(OC(=O)C(C)(C)C)C1OC(=O)C(C)(C)C (stereo partly specified)", "GI50", "72.3 µM (inactive)"],
  ["C[C@@]12C=CC3C/C(=N\\C(N)=S)C=C(CCCC4OCCO4)[C@]3(CC1)C2 (stereo partly specified)", "GI50", "14.8 µM (inactive)"],
  ["Nc1ncc(Cc2nn3c(COc4ccc(Cl)cc4)nnc3s2)s1", "GI50", "> 100 µM (inactive)"]
]}

Each recorded value in this set is attributed to ChEMBL document CHEMBL1201862.
